# Study target: acetylcholinesterase originating from "Electrophorus electricus" (Electrophorus electricus, UniProt O42275)
# Sequence (O42275 24-633): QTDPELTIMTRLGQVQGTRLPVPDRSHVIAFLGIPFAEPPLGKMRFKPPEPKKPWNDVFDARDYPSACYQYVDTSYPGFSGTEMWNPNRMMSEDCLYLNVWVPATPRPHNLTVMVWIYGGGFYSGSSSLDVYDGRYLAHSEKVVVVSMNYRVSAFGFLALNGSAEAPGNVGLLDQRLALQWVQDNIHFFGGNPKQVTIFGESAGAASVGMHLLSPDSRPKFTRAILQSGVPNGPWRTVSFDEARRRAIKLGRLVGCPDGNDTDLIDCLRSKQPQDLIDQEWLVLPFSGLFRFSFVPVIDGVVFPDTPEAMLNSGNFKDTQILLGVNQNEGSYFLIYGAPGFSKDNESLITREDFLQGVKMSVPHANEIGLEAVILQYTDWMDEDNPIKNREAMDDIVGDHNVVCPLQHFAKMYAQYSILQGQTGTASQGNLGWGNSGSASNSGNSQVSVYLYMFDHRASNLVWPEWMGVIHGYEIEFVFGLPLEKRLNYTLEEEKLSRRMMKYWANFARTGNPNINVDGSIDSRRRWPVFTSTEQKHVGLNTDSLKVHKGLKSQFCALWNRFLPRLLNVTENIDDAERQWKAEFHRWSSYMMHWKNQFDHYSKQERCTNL
# Assay context: first order carbamylation rate constant
Measured metric: k2 (± S.E.)
One number for each entry.

Look up k2 (± S.E.) for the entries below, preserving their order.
1. CN(C)C(=O)Oc1ccc2c(c1)[C@]1(C)CCN(C)[C@@H]1N2C
2. CCCCNC(=O)Oc1ccc2c(c1)[C@]1(C)CCN(C)[C@@H]1N2C
3. CCCCCCCNC(=O)Oc1ccc2c(c1)[C@]1(C)CCN(C)[C@@H]1N2C
4. CCNC(=O)Oc1ccc2c(c1)[C@]1(C)CCN(C)[C@@H]1N2C

OUTPUT:
1: 8.8; 2: 6.7; 3: 7.2; 4: 3.5

###

# Study target: acetylcholinesterase originating from "Electrophorus electricus" (Electrophorus electricus, UniProt O42275)
Give pIC50 for every item shown.
Give bare numbers, as −log10 of the molar value.

Reference set (6 entries):
CCNC(=O)Oc1ccc2c(c1)[C@]1(C)CCN(C)[C@@H]1N2C
6.00
CCCCCCCNC(=O)Oc1ccc2c(c1)[C@]1(C)CCN(C)[C@@H]1N2C
6.00
CCCCNC(=O)Oc1ccc2c(c1)[C@]1(C)CCN(C)[C@@H]1N2C
5.46
CN(C)C(=O)Oc1ccc2c(c1)[C@]1(C)CCN(C)[C@@H]1N2C
5.51
CCCNC(=O)Oc1ccc2c(c1)[C@]1(C)CCN(C)[C@@H]1N2C
5.60
CCCCCCCCCNC(=O)Oc1ccc2c(c1)[C@]1(C)CCN(C)[C@@H]1N2C
5.82

Each of the following entries comes with a recorded value; kindly state pIC50 for each.
1. CCN(CC)C(=O)Oc1ccc2c(c1)[C@]1(C)CCN(C)[C@@H]1N2C
2. CCCCCCCCCCCNC(=O)Oc1ccc2c(c1)[C@]1(C)CCN(C)[C@@H]1N2C

OUTPUT:
[3.17, 5.54]
